B1: F1*; the commonest letter at each place (parent)
chain: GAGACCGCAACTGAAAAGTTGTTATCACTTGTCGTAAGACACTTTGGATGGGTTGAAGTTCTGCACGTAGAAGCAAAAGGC

Variants of: B1
Assay: fraction ligated after 30 min (ligated reads / total reads); higher = more ligase activity
Conditions: with F1*sub RNA substrate (template-directed ligation), 42 °C
Recorded fraction ligated values for a group of variants are listed next.
// no unit, no text: just the number

Example results:
{"sequence": "GAGACCGCAACTGAAAAGTTGTAATCACTTGTCGTAAGACACTTTGGAAGGGTTGAAGTTCTGCACGTAGAAGCAAAAGGC [T23A T49A]", "readout.name": "fraction ligated", "endpoint.value": 0.791}
{"sequence": "GAGACCGCAACTGAAAAGTTGTTATCACTTGTCGTAGGACACGTTGGATGGGTTGAAGTTCTGCACGTAGAAGCAAAAGGC [A37G T43G]", "readout.name": "fraction ligated", "endpoint.value": 0.814}

Field: next variant
Sample GAGACCGCAACTGAAAAGTTGTTATCACTTGTCGTAATTCACTTTGGATGGGTTGAAGTTCTGCACGTAGAAGCAAAAGGC [G38T A39T] — what was its fraction ligated? 0.817
